Tested on: 817829-284-R-J1-PDC complex spheroid viability;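 further: spheroids exposed to compounds for 7 days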
methodDescription: Anticancer human tumor 817829-284-R-J1-PDC patient-derived colon adenocarcinoma cell line growth inhibition [POLQ]
conditionSummary: curve of first compound; second compound 0.0316 µM
Readings of IC50 for the listed compounds

{"columns": ["compound", "unitsText", "relationSign", "IC50"],
 "data": [
  ["Nc1ccn(C2OC(CO)C(O)C2(F)F)c(=O)n1 (stereo not given) + Nc1ccc(C#CCN(C(=O)Cc2ncc(C(F)(F)F)cc2C(F)(F)F)c2ccc(F)cc2)nn1", "nM", "<", 31.6],
  ["COc1cccc2c1C(=O)c1c(O)c3c(c(O)c1C2=O)CC(O)(C(=O)CO)CC3OC1CC(N)C(O)C(C)O1 (stereo not given) + COC1C(OC(N)=O)C(O)C(Oc2ccc3c(O)c(NC(=O)c4ccc(O)c(CC=C(C)C)c4)c(=O)oc3c2C)OC1(C)C", "nM", "=", 110],
  ["COc1ccc([C@@H](O)c2cc(-c3ncnc4cc(N5CCOCC5)ccc34)c(F)cc2Cl)nn1 + Cc1cccc(N(C)C(=O)C2C(O)CCN2c2nc(C)cc(C(F)(F)F)c2C#N)c1", "nM", "=", 715],
  ["C=CCn1c(=O)c2cnc(Nc3ccc(N4CCN(C)CC4)cc3)nc2n1-c1cccc(C(C)(C)O)n1 + Cc1cccc(N(C)C(=O)C2C(O)CCN2c2nc(C)cc(C(F)(F)F)c2C#N)c1", "nM", "=", 155],
  ["CCc1cc2c(N3CCc4c(cc(Cn5ccnc5)cc4-c4cn(C)nc4C(F)(F)F)C3=O)ccnc2c(OC)n1 + Nc1ccc(C#CCN(C(=O)Cc2ncc(C(F)(F)F)cc2C(F)(F)F)c2ccc(F)cc2)nn1", "nM", "=", 2590]
]}
